Target: T1, human calcitonin receptor (human, UniProt P30988 25-474)
T1 sequence (looked up): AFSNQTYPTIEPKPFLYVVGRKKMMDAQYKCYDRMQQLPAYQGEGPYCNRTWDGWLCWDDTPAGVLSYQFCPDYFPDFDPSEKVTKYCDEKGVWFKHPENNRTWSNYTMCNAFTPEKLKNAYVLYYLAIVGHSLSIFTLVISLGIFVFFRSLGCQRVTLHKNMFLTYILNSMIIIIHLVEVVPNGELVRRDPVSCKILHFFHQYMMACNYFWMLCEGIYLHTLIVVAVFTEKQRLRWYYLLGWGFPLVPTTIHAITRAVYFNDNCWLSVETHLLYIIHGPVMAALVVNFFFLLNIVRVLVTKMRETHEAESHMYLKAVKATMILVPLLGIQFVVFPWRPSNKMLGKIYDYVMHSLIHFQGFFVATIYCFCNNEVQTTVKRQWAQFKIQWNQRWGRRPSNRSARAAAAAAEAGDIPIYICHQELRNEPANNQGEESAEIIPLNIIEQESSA
Assay: cell-based or functional assay
Numbered stars: 1 amine (or outer) side, 2 acyl side, 3 side chain; on linkers, the order of the positions; unused ones are H or OH. Ends that are not written are not given here. * marks the point of attachment. C20 diacid = O=C(O)CCCCCCCCCCCCCCCCCCC(=O)*; γGlu = O=C(O)[C@H](CCC(=O)[*:2])N[*:1]
Consider the following binders and their measured hCTR funct. EC50 (pM) readings.
Units required after the number.

Value of measured hCTR funct. EC50 (pM) for the entry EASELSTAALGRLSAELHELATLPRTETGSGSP-NH2 [[30S, 31G]mimylin] : 2 pM

Value of measured hCTR funct. EC50 (pM) for the entry ASGLSTAVLGRLSQELHELQTYPRTETGSGTY (ends and bridges not checked) [[des1, 4G, 9V, 15Q, 21Q, 23Y, 30S, 31G, 32T, 33Y]mimylin] : 4 pM

Value of measured hCTR funct. EC50 (pM) for the entry {C20 diacid}-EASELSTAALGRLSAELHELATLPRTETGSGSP-NH2 [[N-terminal(C20 diacid), 30S, 31G]mimylin] : 9 pM

Value of measured hCTR funct. EC50 (pM) for the entry {C20 diacid-γGlu}-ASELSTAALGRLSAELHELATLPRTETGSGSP-NH2 [[N-terminal(C20 diacid-gGlu), des1, 30S, 31G]mimylin] : 14 pM
